The values you see were collected from paper PMC9103596.

target: hCA II (Homo sapiens); details: read-out: KI hCA II; stopped-flow CO2 hydrase assay, mean from three assays
VALUE TYPE: Ki (mM)
Expressed in mM, but write only the number.

Prompt: Look up Ki for this compound: OB(O)O
Completion: 41

###

tested on: A375 (human malignant melanoma) cells; details: read-out: IC50 cell viability; A375, WST-1, 48 h
VALUE TYPE: pIC50
Schema: pIC50 number; meaning minus log10 of the concentration expressed in molar units.

Prompt: Look up pIC50 for this molecule: OB(O)O
Completion: 1.81

###

target: hCA IX (Homo sapiens)
VALUE TYPE: pKi
Schema: pKi number; meaning minus log10 of the concentration expressed in molar units.

Prompt: Look up pKi for this molecule: OB(O)O [Boric acid]
Completion: 2.55
